- assay_target: bovine cardiac myofibrils (full-length cardiac myosin ATPase in the native sarcomere) (Bos taurus (Bovine), UniProt Q9BE39)
- Sequence (Q9BE39 whole entry): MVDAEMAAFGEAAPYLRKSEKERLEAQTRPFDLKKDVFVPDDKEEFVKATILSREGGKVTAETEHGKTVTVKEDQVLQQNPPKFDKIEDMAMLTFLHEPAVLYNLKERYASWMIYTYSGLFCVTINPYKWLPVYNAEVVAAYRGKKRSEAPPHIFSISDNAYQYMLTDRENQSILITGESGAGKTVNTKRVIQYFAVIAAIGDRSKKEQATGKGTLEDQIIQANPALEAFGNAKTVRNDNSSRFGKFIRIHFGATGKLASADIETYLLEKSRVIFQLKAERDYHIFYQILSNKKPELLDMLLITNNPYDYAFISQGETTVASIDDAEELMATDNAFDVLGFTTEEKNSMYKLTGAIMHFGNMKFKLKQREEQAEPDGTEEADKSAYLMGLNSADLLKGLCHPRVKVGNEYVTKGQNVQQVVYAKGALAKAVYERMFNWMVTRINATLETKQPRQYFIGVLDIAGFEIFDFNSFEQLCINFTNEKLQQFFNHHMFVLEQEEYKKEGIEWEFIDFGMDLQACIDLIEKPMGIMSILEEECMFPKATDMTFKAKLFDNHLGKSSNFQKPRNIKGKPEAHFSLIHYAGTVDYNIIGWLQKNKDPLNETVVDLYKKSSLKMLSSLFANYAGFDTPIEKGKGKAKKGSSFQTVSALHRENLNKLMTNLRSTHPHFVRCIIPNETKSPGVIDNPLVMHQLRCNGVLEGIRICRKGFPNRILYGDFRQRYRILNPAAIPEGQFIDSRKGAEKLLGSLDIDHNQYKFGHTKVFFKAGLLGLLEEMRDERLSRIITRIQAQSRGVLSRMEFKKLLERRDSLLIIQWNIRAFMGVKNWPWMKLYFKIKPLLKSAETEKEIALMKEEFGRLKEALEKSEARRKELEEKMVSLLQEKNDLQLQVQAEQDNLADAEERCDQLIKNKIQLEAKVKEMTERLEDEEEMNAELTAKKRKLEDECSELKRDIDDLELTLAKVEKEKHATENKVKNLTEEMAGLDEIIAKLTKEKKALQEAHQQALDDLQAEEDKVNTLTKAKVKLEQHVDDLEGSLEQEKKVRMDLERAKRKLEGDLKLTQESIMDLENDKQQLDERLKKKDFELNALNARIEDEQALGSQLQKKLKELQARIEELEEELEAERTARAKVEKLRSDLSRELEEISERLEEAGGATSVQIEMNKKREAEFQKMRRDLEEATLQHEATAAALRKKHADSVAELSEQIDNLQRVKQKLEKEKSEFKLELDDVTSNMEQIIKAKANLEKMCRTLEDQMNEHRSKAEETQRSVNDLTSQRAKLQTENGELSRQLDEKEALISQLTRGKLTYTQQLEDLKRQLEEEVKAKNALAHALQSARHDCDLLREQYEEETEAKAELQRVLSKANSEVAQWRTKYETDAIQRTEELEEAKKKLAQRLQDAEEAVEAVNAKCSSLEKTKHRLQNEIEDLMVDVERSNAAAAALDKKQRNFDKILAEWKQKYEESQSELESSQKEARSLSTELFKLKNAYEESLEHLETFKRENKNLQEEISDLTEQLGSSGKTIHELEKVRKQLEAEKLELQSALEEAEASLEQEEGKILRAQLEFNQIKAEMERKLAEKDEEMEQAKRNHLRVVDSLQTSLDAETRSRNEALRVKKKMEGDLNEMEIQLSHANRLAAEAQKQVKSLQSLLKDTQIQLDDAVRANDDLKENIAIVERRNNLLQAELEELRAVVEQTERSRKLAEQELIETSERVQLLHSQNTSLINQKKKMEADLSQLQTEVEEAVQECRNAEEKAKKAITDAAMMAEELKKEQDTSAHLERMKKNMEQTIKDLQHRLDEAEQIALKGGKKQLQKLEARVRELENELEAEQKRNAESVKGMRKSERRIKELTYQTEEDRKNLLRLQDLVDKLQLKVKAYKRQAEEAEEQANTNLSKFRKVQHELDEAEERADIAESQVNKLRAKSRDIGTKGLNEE
- Sequence (P85100 whole entry partner): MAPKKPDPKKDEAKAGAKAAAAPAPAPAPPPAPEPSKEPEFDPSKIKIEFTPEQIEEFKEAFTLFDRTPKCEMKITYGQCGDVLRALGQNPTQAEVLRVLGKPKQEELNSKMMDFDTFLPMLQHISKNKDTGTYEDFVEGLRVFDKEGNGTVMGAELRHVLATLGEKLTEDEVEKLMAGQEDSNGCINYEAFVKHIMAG
- Sequence (Q3SZE5 whole entry partner): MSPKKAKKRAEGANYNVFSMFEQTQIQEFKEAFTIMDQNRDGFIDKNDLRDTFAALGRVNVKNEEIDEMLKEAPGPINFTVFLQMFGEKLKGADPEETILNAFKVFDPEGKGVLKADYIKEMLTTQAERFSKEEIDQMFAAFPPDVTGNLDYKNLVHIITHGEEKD
- experiment_notes: Skinned bovine cardiac myofibril ATPase assay (PK/LDH-coupled)
- condition_context: Ca2+ activating to 75% of maximal rate, read-out: CDMF75 IC50
assay_readout: IC50 (µM)

Below, 2 compounds whose answers are already recorded.
* Cc1ncc(C(=O)NC2COc3cc(-c4noc(C(F)F)n4)ccc32)o1 (centres unmarked) | 4
* O=C(N[C@@H]1CCc2cc(-c3noc(C(F)F)n3)ccc21)c1ccnc(CO)c1 [Compound 664] | 1.9

A. COC(=O)N[C@@H]1COc2cc(-c3noc(C4CC4)n3)ccc21
B. Cc1nc(-c2ccc3c(c2)CCC3NC(=O)c2ocnc2C2CC2)no1 (centres unmarked)
Query block: Could you please tell me which of these two has the higher IC50: A or B ? Could you answer with the label of the item you picked?
Result block: B
(B: 4.9 µM, A: 1.8 µM)

====

- assay_target: bovine cardiac myofibrils (full-length cardiac myosin ATPase in the native sarcomere) (Bos taurus (Bovine), UniProt Q9BE39)
- experiment_notes: Skinned bovine cardiac myofibril ATPase assay (PK/LDH-coupled)
- Type: biochemical
- condition_context: Ca2+ activating to 75% of maximal rate, concentration giving 15% inhibition
assay_readout: CDMF75 IC15 (nM)

Solved cases (6 shown):
- CCc1nc(-c2ccc3c(c2)CC[C@H]3NC(=O)c2ocnc2C)no1: 300
- Nc1cc(C(=O)NC2CCc3cc(-c4noc(C(F)F)n4)ccc32)ccn1 (centres unmarked): 600
- COCc1nc(-c2ccc3c(c2)CC[C@H]3NC(=O)c2ccnc(C(F)F)c2)no1: 1100
- CCc1nc(-c2ccc3c(c2)CC[C@H]3NC(=O)c2cnn(C3CN(C(N)=O)C3)c2)no1: 1900
- COCc1nc(-c2ccc3c(c2)OC[C@H]3NC(=O)c2ccnn2C)no1: 600
- CCOCCn1cc(C(=O)N[C@@H]2CCc3cc(-c4noc(CC)n4)ccc32)cn1: 900

I. Cc1ncc(C(=O)N[C@@H]2CCc3cc(-c4noc(C(C)C)n4)ccc32)o1
II. CC(C)NC(=O)N[C@@H]1CCc2cc(-c3noc(C(F)F)n3)ccc21
Query block: I'd appreciate it if you could identify which of I and II has the greater CDMF75 IC15. Field: selected label. Fill in the label of the entry you choose.
Result block: II
(II: 39200 nM, I: 1300 nM)

====

- assay_target: bovine cardiac myofibrils (full-length cardiac myosin ATPase in the native sarcomere) (Bos taurus (Bovine))
- experiment_notes: Skinned bovine cardiac myofibril ATPase assay (PK/LDH-coupled)
- condition_context: Ca2+ activating to 75% of maximal rate, read-out: CDMF75 IC50
assay_readout: IC50 (nM)

Reference set, count: 5
• CCc1cc(-c2ccc3c(c2)OC[C@H]3NC(=O)c2cnn(C)c2)no1 = 1200
• Cc1nc(-c2ccc3c(c2)CC[C@H]3NC(=O)c2nnn(C)n2)no1 = 2800
• Cc1c(C(=O)N[C@@H]2COc3cc(-c4noc(C(F)F)n4)ccc32)cnn1C = 1600
• CCc1nc(-c2ccc3c(c2)CC[C@H]3NC(=O)c2cnn(CC(O)CO)c2)no1 (some centres unmarked) [Compound 553] = 5100
• CC(=O)OCCc1nc(-c2ccc3c(c2)CC[C@H]3NC(=O)c2cnn(C)c2)no1 = 39200

I. [2H]C([2H])([2H])c1noc(-c2ccc3c(c2)OC[C@H]3NC(=O)c2cnn(C)c2)n1
II. CCc1nc(-c2ccc3c(c2)CC[C@H]3NC(=O)OC2CCCC2)no1
Query block: Out of I and II , name the one with the higher IC50. Answer by quoting the chosen item's label.
Result block: I
